Test system: HCC1937 (Breast Carcinoma);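 note: after 72 h of two-drug dosing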
Assay Notes: Bliss excess, mean over the matrix (fraction); higher = more synergy
Test Readout: Bliss excess

Known Bliss excess results, listed for orientation:
CN(C)CCCOc1ccc(-c2ccc3ncc4c(c3c2)n(C2CCOCC2)c(=O)n4C)cn1 [AZD0156] + C[C@@H]1COCCN1C2=NC(=NC(=C2)C3(CC3)[S@](=N)(=O)C)C4=C5C=CNC5=NC=C4 [AZD6738] (first compound max 1 µM, 7x7, partner max 10 µM) :: -0.0386
CN(CCO)CC[C@H](CSc1ccccc1)Nc1ccc(S(=O)(=O)NC(=O)c2ccc(N3CCC([C@@H](O)c4ccccc4-c4ccc(Cl)cc4)CC3)cc2)cc1S(=O)(=O)C(F)(F)F [AZD4320] + C1CN(CCC1(C(=O)N[C@@H](CCO)C2=CC=C(C=C2)Cl)N)C3=NC=NC4=C3C=CN4 [Capivasertib] (first compound max 1 µM, 7x7, partner max 3 µM) :: -0.0881
C[C@@H](c1ccc2nccn2c1)n1nnc2ncc(-c3cnn(C)c3)nc21 [Savolitinib] + Cc1c2c(nn1C)CSCc1cc(n(C)n1)CSc1cc(c3ccccc3c1)OCCCc1c(C(=O)O)n(C)c3c-2c(Cl)ccc13 [AZD5991] (first compound max 1 µM, 7x7, partner max 1 µM) :: -0.0386

Pending compound:
Asked: Returns the measured Bliss excess for the input compound. Input: Cc1nc(Nc2ncc(C(=O)Nc3c(C)cccc3Cl)s2)cc(N2CCN(CCO)CC2)n1 [Dasatinib] + CC(=O)Nc1cccc(-n2c(=O)n(C3CC3)c(=O)c3c(Nc4ccc(I)cc4F)n(C)c(=O)c(C)c32)c1 [Trametinib] (first compound max 2 µM, 7x7, partner max 1 µM)
Given back: -0.0262
